Numbers sourced from patent US11918587B2.

# Tested on: pERK in MIA PaCa-2 cells
# method_summary: cells
# setup_conditions: Homo sapiens, MIA PaCa-2, 1 h, read-out: pERK EC50
measure: pEC50
One number for each entry, as −log10 of the molar value.

Challenge: Annotate the compound Cc1ccc(NC(=O)N2CC[C@@H](CC(F)(F)F)C2)cc1-c1cc(N[C@H](C)CO)nc(N2CCOCC2)c1 with its measured pEC50.
Response given: 6.16

---

# Tested on: pERK in IHH-4 cells
# method_summary: cells
measure: pEC50
Give bare numbers, as −log10 of the molar value.

Challenge: Annotate the compound Cc1ccc(NC(=O)N2CC[C@@H](CC(F)(F)F)C2)cc1-c1cc(N[C@H](C)CO)nc(N2CCOCC2)c1 with its measured pEC50.
Response given: 7.27
